assay procedure: amyloid nucleation score (Sup35N fusion, yeast selection) (log enrichment); library NNK1; higher = more nucleation; inactive = no reads after selection;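 further: zero at mode of non-aggregating sequences after 7 days selection at 30°C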
measured property: amyloid nucleation score

substance: LITLAFVVSCVSYSRGSKRW
amyloid nucleation score: 1.31

substance: ASVFLNQLLPCNYSAVRMGS
amyloid nucleation score: 0.134

substance: SDYRRPKEPVSS
amyloid nucleation score: 3.01

substance: WGICAVLHLMTIIGLIRVER
amyloid nucleation score: inactive

substance: SCNYWCERVQGNSLWVGWVH
amyloid nucleation score: -0.126

substance: FGHKCAIFGNWEF
amyloid nucleation score: -0.933

substance: PWRCLM
amyloid nucleation score: inactive

substance: DMYYNQTRVQKPPVMPQSLK
amyloid nucleation score: -0.667

Qu. Request the reported amyloid nucleation score associated with MVGVLVKVREKAVMGPGQFG
Ans. 0.804

Qu. Request the reported amyloid nucleation score associated with FDSLNAYSLSPSMVMKDSRG
Ans. 0.17

Qu. Request the reported amyloid nucleation score associated with SLSYFSSFI
Ans. inactive

Qu. Request the reported amyloid nucleation score associated with HLFTGNAYRGTRMGKLVGSH
Ans. 0.328
